Test system: MDA-MB-435
assay.summary: NCI tumour cell line growth inhibition, 48 h
The source made the active and inactive calls. Rule as the data show it: active = GI50 up to about 1.1 µM and inactive = higher.
# Lookup of reported GI50 keyed by entry
endpoint.name: GI50

> print(dat)
                                   molecule  target.entity      observed.result
1  O=C1N(c2ccccc2)C(=S)/C(=C/c2ccc(Cl)cc2)N1c1ccc(Cl)cc1     MDA-MB-435   35.6 µM (inactive)
2  COC(=O)n1c(=O)n(-c2ccccc2)c(=O)n1C(=O)Nc1ccccc1     MDA-MB-435  > 100 µM (inactive)
3  COC(=O)c1c2c(cc3c1CC1(Cc4cc5c(c(C=O)c4C1)CCCC5)C3)CCCC2 (centres undefined)     MDA-MB-435  > 100 µM (inactive)
4  Cc1nn(C2OC(CO)C(O)C(F)C2O)c(=O)[nH]c1=O (centres undefined)     MDA-MB-435  > 100 µM (inactive)
5     O=c1c2c(c1=O)C1(SCCCS1)c1cc(Cl)ccc1O2     MDA-MB-435  > 100 µM (inactive)
6     O=C1c2ccccc2-c2[nH]c3cn[nH]c(=O)c3c21     MDA-MB-435   48.6 µM (inactive)
7             Nc1ccc(S(=O)(=O)NCc2nccs2)cc1     MDA-MB-435   19.6 µM (inactive)
8            Cn1c(=O)cc(NNc2ccccc2)[nH]c1=O     MDA-MB-435   28.2 µM (inactive)
9  Cc1cc(C)nc(NS(=O)(=O)c2ccc(Nc3c4ccccc4nc4ccc(C(=O)Nc5ccc(S(N)(=O)=O)cc5)cc34)cc2)n1     MDA-MB-435  > 100 µM (inactive)

----------
Tested on: 786-0
assay.summary: NCI tumour cell line growth inhibition, 48 h
Activity calls are given as the source filed them. Rule as the data show it: active = GI50 up to about 1.1 µM and inactive = higher.
Classes used: True (active), False (inactive)

> print(dat)
                                    compound  category.label
 1              COc1ccc([Se]c2ccc(OC)cc2)cc1           False
 2              O=C(O)Cc1cc(O)c(CC(=O)O)cc1O           False
 3  Cc1c2c(n3c(nc4ccccc43)c1C#N)N(c1ccc(Cl)cc1)CC2           False
 4  OCCNC1c2cc(Cl)ccc2-c2c(Cl)cc(Cl)cc21 (stereo not given)           False
 5  COC(=O)C1=CSC2(S1)C(C(=O)OC)=CSc1c2ss/c1=N\c1ccccc1 (stereo not given)           False
 6  COc1ccc(/C=C/C(=O)CCN2CCN(CCC(=O)/C=C/c3ccc(OC)cc3)CC2)cc1           False
 7  COCN1C(=O)[C@@H]2C[C@@H](OC/C=C/CBr)CN2C(=O)c2ccccc21           False
 8                O=C1CCC[C@]2(CCCC(=O)N2)C1           False
 9  Cc1ccc(/N=N/c2ccc(N)cc2C)c(S(N)(=O)=O)c1           False
10  NS(=O)(=O)c1ccc(/N=N/c2nc3[nH]cnc(=S)c3[nH]2)cc1            True
11  O=C1CCCC2C3CC(CN12)C1CCCCN1C3.[O-][Cl+3]([O-])([O-])O (stereo not given)           False
12  CC(=O)N1C(c2[nH]c3ccccc3c2-c2ccccc2)CCN1c1ccccc1 (stereo not given)           False
13  C[n+]1c(-c2ccc(/C=N/Nc3n[nH]c(=S)n3N/N=C/c3ccc(-c4cn5ccccc5[n+]4C)cc3)cc2)cn2ccccc21           False
14  C#CCN(Cc1ccc2nc(-c3ccccc3)c(N)nc2c1)c1cc(OC)c(OC)c(OC)c1           False
15  Nc1ccn([C@H]2CO[C@@H](CO)[C@@H]2O)c(=O)n1           False

----------
# Lookup of reported GI50 keyed by entry
Tested on: MDA-MB-435
assay.summary: NCI tumour cell line growth inhibition, 48 h
Activity calls are given as the source filed them. Rule as the data show it: active = GI50 up to about 1.1 µM and inactive = higher.
endpoint.name: GI50

> print(dat)
                                    compound  endpoint.name      observed.result
 1               C=C1N(C=O)C(C)(C)N(O)C1(C)C           GI50  > 100 µM (inactive)
 2  CCn1c(SCC(=O)NNC(=S)Nc2ccc(C)cc2)nc2ccccc2c1=O           GI50  > 100 µM (inactive)
 3  COc1ccc(NC(=O)CC(=O)n2nc(-c3ccccc3)c(/N=N/c3ccccc3C)c2-c2ccccc2)cc1           GI50  > 100 µM (inactive)
 4  CC1C(C#N)(C#N)C(C#N)=C(N)C1(Cl)[N+](=O)[O-] (stereo unspecified)           GI50   16.7 µM (inactive)
 5  O=C1CCCC2C3CC(CN12)C1CCCCN1C3.[O-][Cl+3]([O-])([O-])O (stereo unspecified)           GI50  > 100 µM (inactive)
 6  O[C@@]12Cc3c([nH]c4ccccc34)[C@@H]3Oc4c(-c5ccccc5)ccc5c4[C@@]31CCN(CC1CC1)[C@@H]2C5           GI50   1.77 µM (inactive)
 7  c1ccc(/N=C2\SC(c3ccccc3)CN2C23CC4CC(CC(C4)C2)C3)cc1 (stereo unspecified)           GI50  > 100 µM (inactive)
 8      N#Cc1nc(-c2ccccn2)c(-c2ccccn2)nc1C#N           GI50    2.7 µM (inactive)
 9  C=C1C(=O)O[C@H]2C[C@@H]1C(=O)CC(C)CCCC(C)=CCC[C@@]2(C)O (stereo partly specified)           GI50   > 25 µM (inactive)
10                        O=C(O)CN1CCNCCNCC1           GI50  > 100 µM (inactive)
11  C[C@]1(S(=O)(=O)c2ccccc2)C[C@H]2N(Cc3ccccc3)[C@@H]1CCC21OCCO1           GI50  > 100 µM (inactive)

----------
# Lookup of reported GI50 keyed by entry
Tested on: SK-MEL-5
assay.summary: NCI tumour cell line growth inhibition, 48 h
Activity calls are given as the source filed them. No stated cut-off is given here; in the data, active = GI50 up to about 1.1 µM and inactive = higher.
endpoint.name: GI50

> print(dat)
                                    compound      observed.result
 1  Cc1ccc(/N=N/c2ccc(N)cc2C)c(S(N)(=O)=O)c1   77.6 µM (inactive)
 2  Oc1cn(-c2ccc(Cl)cc2)nc1-c1n[nH]c(=S)n1-c1ccccc1   4.19 µM (inactive)
 3  CN(Cc1cc(Br)cc(Br)c1O)Cc1c(O)ccc2ccccc12   17.4 µM (inactive)
 4  CC1(C)CC(O)C(C)(C)[C@@H](O)C1 (some centres not stated)  > 100 µM (inactive)
 5  CCn1c2c(c3c(C(=O)OC)c(O)ccc31)C(=O)c1ccccc1C2=O   11.7 µM (inactive)
 6  C=C(COC(C)=O)CC(OC(C)=O)c1ccccc1 (configuration not stated)  > 100 µM (inactive)
 7  COC(=O)c1c2c(cc3c1CC1(Cc4cc5c(c(C=O)c4C1)CCCC5)C3)CCCC2 (configuration not stated)   71.4 µM (inactive)
 8   COc1cc(Br)cc2cc(-c3cn4ccsc4n3)c(=O)oc12   19.7 µM (inactive)
 9  Cc1nn(C2OC(CO)C(O)C(F)C2O)c(=O)[nH]c1=O (configuration not stated)  > 100 µM (inactive)
10     O=C1c2ccccc2-c2[nH]c3cn[nH]c(=O)c3c21  > 100 µM (inactive)
11  O=C1O/C(=C(/Cl)c2c3ccccc3cc3ccccc23)c2ccccc21   15.4 µM (inactive)
12  COc1cc(N(Cc2ccc3nc(OC)c(OC)nc3c2)Cc2ccc3nc(OC)c(OC)nc3c2)cc(OC)c1OC   > 50 µM (inactive)

----------
# Lookup of reported GI50 keyed by entry
Test system: COLO 205
assay.summary: NCI tumour cell line growth inhibition, 48 h
Activity calls are given as the source filed them. No stated cut-off is given here; in the data, active = GI50 up to about 1.1 µM and inactive = higher.
endpoint.name: GI50

compound	observed.result
Cc1cccc(C(C)C)c1NC(=O)CC1Sc2ccccc2NC1=O (configuration not stated)	> 100 µM (inactive)
C[N+](C)(C)CCN(Cc1cccs1)c1ccccn1	35.2 µM (inactive)
CN(C)CCCNC(CC#N)CCC#N (configuration not stated)	> 10 µM (inactive)
S=C1N=C(Cl)/C(=C\c2ccccc2)N1	> 100 µM (inactive)
CN(C)Cc1cc(C(=O)/C=C/c2ccc(O)cc2)cc(CN(C)C)c1O	19.4 µM (inactive)
CCCCCCCCC/C=C1/CC(CO)(COC(=O)C2CCCCC2)OC1=O (configuration not stated)	34 µM (inactive)
Cc1ccc(Nc2nc(C)c(C(=O)CC(=O)C(=O)Nc3c(C)cccc3C(C)(C)C)s2)cc1	> 100 µM (inactive)
CNC(=S)N(C1CCCCC1)C1CCCCC1	66.1 µM (inactive)
Nc1nc(Cl)c(N)c(NCC2(CO)CC(OCc3ccccc3)C2)n1 (configuration not stated)	> 100 µM (inactive)
COC(=O)c1ccc(CCc2cc(O)c(Br)cc2O)cc1	12.6 µM (inactive)
CC(CC[C@@]1(O)OC2C[C@H]3[C@@H]4CC[C@H]5CC(OC6OC(CO)C(OC7OC(CO)C(O)C(OC8OCC(O)C(O)C8O)C7OC7OC(CO)C(O)C(O)C7O)C(O)C6O)[C@H](O)CC5(C)[C@H]4CCC3(C)C2[C@@H]1C)COC1OC(CO)C(O)C(O)C1O (some centres not stated)	13 µM (inactive)
CN(C)C(=S)N1C(=S)N(c2ccccc2)C(=N/c2ccccc2)/C1=N\c1ccccc1	> 100 µM (inactive)
